Test: Determination of the log P values by HPLC on a reversed-phase column (C18)
Type: physicochemical
Details: compounds of the formula (III), cis/trans isomer mixture; first value of the cell
outcome_measure: log P
One number for each entry.

## Input Quickly give me recorded log P for CCOC(=O)C1(OC(=O)Cc2c(CC)cc(C)cc2CC)CCCC(CCOC)C1 (mixture of isomers)
## Output 5.56

## Input Quickly give me recorded log P for CCOC(=O)C1(OC(=O)Cc2c(C)cc(C)cc2C)CCC(COC)CC1 (mixture of isomers)
## Output 4.76

## Input Quickly give me recorded log P for CCOC(=O)C1(OC(=O)Cc2cc(C)c(C)cc2C)CCCC(COC)C1 (mixture of isomers)
## Output 4.85

## Input Quickly give me recorded log P for CCOC(=O)C1(OC(=O)Cc2cc(-c3ccc(Cl)cc3)ccc2C)CCCC(CCOC)C1 (mixture of isomers)
## Output 5.68

Look at each compound and report its log P.
1. CCOC(=O)C1(OC(=O)Cc2c(C)cc(Cl)cc2C)CCC(COC)CC1 (mixture of isomers)
2. CCOC(=O)C1(OC(=O)Cc2c(CC)cc(C)cc2CC)CCC(COC)CC1 (mixture of isomers)
3. CCOC(=O)C1(OC(=O)Cc2cc(C)c(C)cc2C)CCC(CCOC)CC1 (mixture of isomers)

## Output
1. 4.76
2. 5.39
3. 5.00

###

Test: Determination of the log P values by HPLC on a reversed-phase column (C18)
Assay type: physicochemical
Conditions: compounds of the formula (III), cis/trans isomer mixture; first value of the cell
outcome_measure: log P

Here is how some compounds turned out for log P.
## Input Quickly give me recorded log P for CCOC(=O)C1(OC(=O)Cc2c(CC)cc(Br)cc2CC)CCCC(CCOC)C1 (mixture of isomers)
## Output 5.69

## Input Quickly give me recorded log P for CCOC(=O)C1(OC(=O)Cc2cc(-c3ccc(Cl)cc3)ccc2Cl)CCC(COC)CC1 (mixture of isomers)
## Output 5.52

## Input Quickly give me recorded log P for CCOC(=O)C1(OC(=O)Cc2c(CC)cc(Br)cc2CC)CCC(CCOC)CC1 (mixture of isomers)
## Output 5.75

## Input Quickly give me recorded log P for CCOC(=O)C1(OC(=O)Cc2c(CC)cc(Br)cc2CC)CCCC(COC)C1 (mixture of isomers)
## Output 5.52

## Input Quickly give me recorded log P for CCOC(=O)C1(OC(=O)Cc2c(C)cc(C)cc2C)CCCC(COC)C1 (mixture of isomers)
## Output 4.85

Look at each compound and report its log P.
1. CCOC(=O)C1(OC(=O)Cc2c(C)ccc(-c3ccc(Cl)cc3)c2C)CCCC(CCOC)C1 (mixture of isomers)
2. CCOC(=O)C1(OC(=O)Cc2c(C)cc(Br)cc2C)CCCC(COC)C1 (mixture of isomers)
3. CCOC(=O)C1(OC(=O)Cc2cc(-c3ccc(Cl)cc3)ccc2C)CCC(CCOC)CC1 (mixture of isomers)

## Output
1. 6.02
2. 4.94
3. 5.69

###

Assay: Determination of the log P values by HPLC on a reversed-phase column (C18)
Format: physicochemical
Conditions: reversed-phase HPLC column (C18), pH 2.3, cis/trans isomer mixture; HPLC reversed-phase column (C18), acidic range (pH 2.3), 43° C.
outcome_measure: chromatographic logP
Numbers only.

## Input Quickly give me recorded chromatographic logP for CCOC(=O)C1(OC(=O)Cc2c(C)cc(C)cc2C)CCC(CCOC)CC1 (stereo not shown) [III-1]
## Output 5.01

###

For each record, write down the corresponding log P.
Assay: Determination of the log P values by HPLC on a reversed-phase column (C18)
Format: physicochemical
Conditions: compounds of the formula (III), cis/trans isomer mixture; first value of the cell
Give bare numbers.

Here is how some compounds turned out for log P.
## Input Quickly give me recorded log P for CCOC(=O)C1(OC(=O)Cc2c(C)cc(Cl)cc2C)CCCC(COC)C1 (mixture of isomers)
## Output 4.82

## Input Quickly give me recorded log P for CCOC(=O)C1(OC(=O)Cc2c(C)cc(Cl)cc2C)CCCC(CCOC)C1 (mixture of isomers)
## Output 5.00

## Input Quickly give me recorded log P for CCOC(=O)C1(OC(=O)Cc2cc(-c3ccc(Cl)cc3)ccc2Cl)CCC(CCOC)CC1 (mixture of isomers)
## Output 5.70

## Input Quickly give me recorded log P for CCOC(=O)C1(OC(=O)Cc2cc(-c3ccc(Cl)cc3)ccc2Cl)CCCC(CCOC)C1 (mixture of isomers)
## Output 5.67

## Input Quickly give me recorded log P for CCOC(=O)C1(OC(=O)Cc2c(CC)cc(C)cc2CC)CCC(CCOC)CC1 (mixture of isomers)
## Output 5.64

Look at each compound and report its log P.
1. CCOC(=O)C1(OC(=O)Cc2cc(C)c(-c3ccc(Cl)cc3)cc2C)CCCC(CCOC)C1 (mixture of isomers)
2. CCOC(=O)C1(OC(=O)Cc2c(C)ccc(-c3ccc(Cl)cc3)c2C)CCC(COC)CC1 (mixture of isomers)
3. CCOC(=O)C1(OC(=O)Cc2c(C)cc(Br)cc2C)CCC(CCOC)CC1 (mixture of isomers)
4. CCOC(=O)C1(OC(=O)Cc2cc(C)c(C)cc2C)CCC(COC)CC1 (mixture of isomers)
5. CCOC(=O)C1(OC(=O)Cc2c(C)cc(Br)cc2C)CCC(COC)CC1 (mixture of isomers)
6. CCOC(=O)C1(OC(=O)Cc2c(C)cc(Br)cc2C)CCCC(CCOC)C1 (mixture of isomers)
7. CCOC(=O)C1(OC(=O)Cc2c(CC)cc(Br)cc2CC)CCC(COC)CC1 (mixture of isomers)

## Output
[6.03, 5.86, 5.13, 4.74, 4.88, 5.13, 5.52]

###

For each record, write down the corresponding log P.
Test: Determination of the log P values by HPLC on a reversed-phase column (C18)
Type: physicochemical
Settings: compounds of the formula (III), cis/trans isomer mixture; second value of the cell
Numbers only.

## Input Quickly give me recorded log P for CCOC(=O)C1(OC(=O)Cc2cc(-c3ccc(Cl)cc3)ccc2C)CCCC(CCOC)C1 (mixture of isomers)
## Output 5.80

## Input Quickly give me recorded log P for CCOC(=O)C1(OC(=O)Cc2c(C)cc(Cl)cc2C)CCCC(COC)C1 (mixture of isomers)
## Output 4.93

## Input Quickly give me recorded log P for CCOC(=O)C1(OC(=O)Cc2cc(C)c(C)cc2C)CCCC(CCOC)C1 (mixture of isomers)
## Output 5.05

## Input Quickly give me recorded log P for CCOC(=O)C1(OC(=O)Cc2cc(C)c(-c3ccc(Cl)cc3)cc2C)CCC(CCOC)CC1 (mixture of isomers)
## Output 6.19

## Input Quickly give me recorded log P for CCOC(=O)C1(OC(=O)Cc2c(CC)cc(Br)cc2CC)CCCC(CCOC)C1 (mixture of isomers)
## Output 5.81

## Input Quickly give me recorded log P for CCOC(=O)C1(OC(=O)Cc2c(C)cc(Br)cc2C)CCCC(CCOC)C1 (mixture of isomers)
## Output 5.26

***
## Input Quickly give me recorded log P for CCOC(=O)C1(OC(=O)Cc2cc(-c3ccc(Cl)cc3)ccc2Cl)CCC(CCOC)CC1 (mixture of isomers)
## Output 5.85

###

Assay: Determination of the log P values by HPLC on a reversed-phase column (C18)
Assay type: physicochemical
Settings: compounds of the formula (III), cis/trans isomer mixture; second value of the cell
For each record, write down the corresponding log P.
Numbers only.

Look at each compound and report its log P.
1. CCOC(=O)C1(OC(=O)Cc2cc(-c3ccc(Cl)cc3)ccc2Cl)CCCC(CCOC)C1 (mixture of isomers) [III-26]
2. CCOC(=O)C1(OC(=O)Cc2c(C)cc(Cl)cc2C)CCC(CCOC)CC1 (mixture of isomers) [III-30]
3. CCOC(=O)C1(OC(=O)Cc2c(CC)cc(Br)cc2CC)CCCC(COC)C1 (mixture of isomers) [III-7]
4. CCOC(=O)C1(OC(=O)Cc2cc(C)c(C)cc2C)CCCC(COC)C1 (mixture of isomers) [III-5]
5. CCOC(=O)C1(OC(=O)Cc2c(C)cc(Br)cc2C)CCCC(COC)C1 (mixture of isomers) [III-3]
6. CCOC(=O)C1(OC(=O)Cc2c(C)cc(Cl)cc2C)CCC(COC)CC1 (mixture of isomers) [III-10]

## Output
[5.82, 5.15, 5.62, 4.93, 5.05, 4.90]

## Input Quickly give me recorded log P for CCOC(=O)C1(OC(=O)Cc2c(CC)cc(C)cc2CC)CCC(CCOC)CC1 (mixture of isomers) [III-33]
## Output 5.75

###

Experiment: Determination of the log P values by HPLC on a reversed-phase column (C18)
Format: physicochemical
Details: compounds of the formula (III), cis/trans isomer mixture; first value of the cell
outcome_measure: log P
Numbers only.

Here is how some molecules turned out for log P.
## Input Quickly give me recorded log P for CCOC(=O)C1(OC(=O)Cc2cc(C)c(-c3ccc(Cl)cc3)cc2C)CCC(COC)CC1 (mixture of isomers)
## Output 5.90

## Input Quickly give me recorded log P for CCOC(=O)C1(OC(=O)Cc2cc(-c3ccc(Cl)cc3)ccc2C)CCC(COC)CC1 (mixture of isomers)
## Output 5.36

## Input Quickly give me recorded log P for CCOC(=O)C1(OC(=O)Cc2c(C)cc(Cl)cc2C)CCC(CCOC)CC1 (mixture of isomers)
## Output 5.00

## Input Quickly give me recorded log P for CCOC(=O)C1(OC(=O)Cc2cc(C)c(C)cc2C)CCCC(CCOC)C1 (mixture of isomers)
## Output 4.94

## Input Quickly give me recorded log P for CCOC(=O)C1(OC(=O)Cc2c(C)cc(C)cc2C)CCCC(CCOC)C1 (mixture of isomers)
## Output 4.94

## Input Quickly give me recorded log P for CCOC(=O)C1(OC(=O)Cc2cc(-c3ccc(Cl)cc3)ccc2C)CCCC(COC)C1 (mixture of isomers)
## Output 5.50

***
## Input Quickly give me recorded log P for CCOC(=O)C1(OC(=O)Cc2cc(C)c(-c3ccc(Cl)cc3)cc2C)CCC(CCOC)CC1 (mixture of isomers)
## Output 6.14
